- target-or-test-system: MASP-2 (CCP1-CCP2-SP) (Homo sapiens (Human), UniProt O00187)
- Sequence (O00187 445-686): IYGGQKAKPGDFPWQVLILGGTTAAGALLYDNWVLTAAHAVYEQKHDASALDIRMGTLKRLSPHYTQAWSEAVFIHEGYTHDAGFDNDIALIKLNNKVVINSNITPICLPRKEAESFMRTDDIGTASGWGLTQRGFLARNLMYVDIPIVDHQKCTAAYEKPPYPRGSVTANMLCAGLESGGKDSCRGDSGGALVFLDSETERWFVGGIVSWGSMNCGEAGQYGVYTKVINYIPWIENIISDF
- assay-procedure: biochemical
- Assay type: biochemical
- experimental-parameters: selectivity for MASP-2 inhibition versus thrombin
Where a name gives a salt, the structure may show the parent alone.

{"columns": ["compound", "MASP-2 vs. thrombin selectivity"],
 "data": [
  ["Cc1nc(N)ccc1CNC(=O)[C@H](C)NC(=O)[C@H](N)CCc1ccccc1", "**** (≥100-fold)"],
  ["C[C@H](NC(=O)[C@H]1C[C@H](Cc2ccc(-c3ccccc3)cc2)CN1)C(=O)NCc1cnc2[nH]cc(Cl)c2c1 [compound 1356, Di-trifluoroacetate salt]", "**** (≥100-fold)"],
  ["C[C@H](NC(=O)[C@H]1C[C@H](Cc2ccc3ccccc3c2)CN1)C(=O)NCc1cc(Cl)ccc1-n1cnnn1 [compound 1385, Trifluoroacetate salt]", "** (≥5.0 to <25-fold)"],
  ["Cc1nc(N)ccc1CNC(=O)[C@H](C)NC(=O)[C@H]1C[C@H](Cc2ccc(-c3cccnc3)cc2)CN1 [compound 1357, Di-trifluoroacetate salt]", "**** (≥100-fold)"],
  ["C[C@H](NC(=O)c1cc(-c2ccccc2)c(-c2ccccc2)[nH]1)C(=O)NCc1ccc(C(=N)N)cc1", "** (≥5.0 to <25-fold)"]
]}
